biological target: APOL1 G1 (Homo sapiens, UniProt O14791, I384M/S342G); assay: MultiTox-Fluor Multiplex Cytotoxicity Assay, tet-inducible APOL1 G1 T-REx-HEK293 cells; assay type: cell-based; design: expressed in transfected cells; host or cells: T-REx HEK293, clone G1 DC3.25 (pAAVS1-Puro-APOL1 G1); settings: Multi-Tox Assay; APOL1 variant not given
Sequence (O14791 28-398 S342G/I384M): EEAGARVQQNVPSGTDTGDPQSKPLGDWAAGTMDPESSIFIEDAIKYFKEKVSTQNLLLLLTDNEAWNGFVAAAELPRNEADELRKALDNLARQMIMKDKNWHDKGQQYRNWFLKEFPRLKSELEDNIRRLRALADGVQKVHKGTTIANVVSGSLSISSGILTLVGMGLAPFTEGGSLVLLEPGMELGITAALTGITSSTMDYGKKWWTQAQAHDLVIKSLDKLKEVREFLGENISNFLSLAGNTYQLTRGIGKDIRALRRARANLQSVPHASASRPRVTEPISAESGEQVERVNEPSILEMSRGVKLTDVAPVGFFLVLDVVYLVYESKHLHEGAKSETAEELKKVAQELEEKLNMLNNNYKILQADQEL
measurement name: Multi-Tox Assay Max Activity (%)

molecule | measurement name | measured result
CCC(O)Cn1cc([C@@H]2C[C@]3(C[C@H](C)N2)OC[C@@H](O)c2cc(Cl)sc23)nn1 (some centres unmarked) | Multi-Tox Assay Max Activity (%) | 101.0
C[C@H]1C[C@@]2(C[C@@H](c3cn(C)nn3)N1)OCCc1sc(C(F)(F)F)cc12 | Multi-Tox Assay Max Activity (%) | 100.0
C[C@H]1C[C@@]2(C[C@@H](c3cn(C[C@@H](O)CO)nn3)N1)OC[C@@H](O)c1cc(Cl)sc12 | Multi-Tox Assay Max Activity (%) | 97.0
C[C@H]1C[C@@]2(C[C@@H](c3cn(CCC#N)nn3)N1)OC[C@@H](O)c1cc(Cl)sc12 | Multi-Tox Assay Max Activity (%) | 98.0
C[C@H]1C[C@@]2(C[C@@H](c3cn(CC4CCC(=O)NC4)nn3)N1)OC[C@@H](O)c1cc(Cl)sc12 (some centres unmarked) | Multi-Tox Assay Max Activity (%) | 92.0
CC(=O)Nc1cccc([C@@H]2C[C@]3(C[C@H](C)N2)OCCc2cc(Cl)sc23)c1 (racemic) | Multi-Tox Assay Max Activity (%) | 100.0
Cc1noc2cc([C@@H]3C[C@]4(C[C@H](C)N3)OCCc3cc(Cl)sc34)ccc12 (racemic) | Multi-Tox Assay Max Activity (%) | 100.0
CC1CC2(CC(c3cccc(C#N)c3)N1)OCCc1cc(Cl)sc12 (centres unmarked) | Multi-Tox Assay Max Activity (%) | 100.0
CNC(=O)c1ccc(C2CC3(CC(C)N2)OCCc2cc(Cl)sc23)cc1 (centres unmarked) | Multi-Tox Assay Max Activity (%) | 99.7
C[C@H]1C[C@@]2(C[C@@H](c3cnn4c3OCCC4)N1)OCCc1cc(Cl)sc12 (racemic) | Multi-Tox Assay Max Activity (%) | 92.7
Cc1nccn1CCCn1cc([C@@H]2C[C@]3(C[C@H](C)N2)OCC(F)(F)c2cc(Cl)sc23)nn1 | Multi-Tox Assay Max Activity (%) | 98.0
Cc1cc(C)nc(CCn2cc([C@@H]3C[C@]4(C[C@H](C)N3)OC[C@@H](O)c3cc(Cl)sc34)nn2)c1 | Multi-Tox Assay Max Activity (%) | 100.0
CC(CO)CCn1cc([C@@H]2C[C@]3(C[C@H](C)N2)OC[C@@H](O)c2cc(Cl)sc23)nn1 (some centres unmarked) | Multi-Tox Assay Max Activity (%) | 100.0
Cc1cc(C)nc(CCn2cc([C@@H]3C[C@]4(C[C@H](C)N3)OCC(F)(F)c3cc(Cl)sc34)nn2)c1 | Multi-Tox Assay Max Activity (%) | 98.0
C[C@H]1C[C@@]2(C[C@@H](c3cn(CC(C)(C)O)nn3)N1)OC[C@@H](O)c1cc(Cl)sc12 | Multi-Tox Assay Max Activity (%) | 91.0
C[C@H]1C[C@@]2(C[C@@H](c3cn(Cc4ccc(CO)cc4)nn3)N1)OCC(F)(F)c1cc(Cl)sc12 | Multi-Tox Assay Max Activity (%) | 97.0
Cc1cccc([C@@H]2C[C@]3(C[C@H](C)N2)OCCc2cc(Cl)sc23)n1 (racemic) | Multi-Tox Assay Max Activity (%) | 99.4
C[C@H]1C[C@@]2(C[C@@H](c3n[nH]c4ccccc34)N1)OCCc1cc(Cl)sc12 (racemic) | Multi-Tox Assay Max Activity (%) | 86.8
Cc1nc2c([C@@H]3C[C@]4(C[C@H](C)N3)OCCc3cc(Cl)sc34)cccc2o1 (racemic) | Multi-Tox Assay Max Activity (%) | 89.7
Cc1nc([C@@H]2C[C@]3(C[C@H](C)N2)OCCc2cc(Cl)sc23)[nH]c1C (racemic) | Multi-Tox Assay Max Activity (%) | 96.3
CC1CC2(CC(c3ccc4[nH]ncc4c3)N1)OCCc1cc(Cl)sc12 (centres unmarked) | Multi-Tox Assay Max Activity (%) | 99.3
CC(C)c1c[nH]c([C@@H]2C[C@]3(C[C@H](C)N2)OCCc2cc(Cl)sc23)n1 (racemic) | Multi-Tox Assay Max Activity (%) | 92.0
C[C@H]1C[C@@]2(C[C@@H](c3cccc(C(N)=O)c3)N1)OCCc1cc(Cl)sc12 (racemic) | Multi-Tox Assay Max Activity (%) | 100.0
CC1COC2(C[C@@H](c3cn(C)nn3)N[C@@H](C)C2)c2cc(Cl)sc21 (single isomer, unassigned) | Multi-Tox Assay Max Activity (%) | 99.3
C[C@H]1C[C@@]2(C[C@@H](c3cn(Cc4ccc(OC5CCOCC5)cc4)nn3)N1)OC[C@@H](O)c1cc(Cl)sc12 | Multi-Tox Assay Max Activity (%) | 100.0
Cc1nccnc1[C@@H]1C[C@]2(C[C@H](C)N1)OCCc1cc(Cl)sc12 (racemic) | Multi-Tox Assay Max Activity (%) | 91.7
C[C@H]1C[C@@]2(C[C@@H](c3cn(CC4CCC4)nn3)N1)OC[C@@H](O)c1cc(Cl)sc12 | Multi-Tox Assay Max Activity (%) | 95.0
Cc1ccnn1CCn1cc([C@@H]2C[C@]3(C[C@H](C)N2)OC[C@@H](O)c2cc(Cl)sc23)nn1 | Multi-Tox Assay Max Activity (%) | 97.0
CC1COC2(C[C@@H](c3cn(C)nn3)N[C@@H](C)C2)c2cc(C(F)(F)F)sc21 (some centres unmarked) | Multi-Tox Assay Max Activity (%) | 99.3

---

Measured IC90, listed per entry.
target: APOL1 G1 (Homo sapiens, UniProt O14791, I384M/S342G); assay: MultiTox-Fluor Multiplex Cytotoxicity Assay, tet-inducible APOL1 G1 T-REx-HEK293 cells; assay type: cell-based; design: expressed in transfected cells; host or cells: T-REx HEK293, clone G1 DC3.25 (pAAVS1-Puro-APOL1 G1); details: HEK293, Multi-Tox Assay; APOL1 variant (G0/G1/G2) of the HEK293 cells not given; read-out: Multi-Tox Assay IC90

molecule | IC90
C[C@H]1C[C@@]2(C[C@@H](c3ccc(O)nc3)N1)OCCc1cc(Cl)sc12 (racemic) | < 50 nM
C[C@H]1C[C@@]2(C[C@@H](c3cn(C)nn3)N1)OC[C@H](O)c1cc(C(F)(F)F)sc12 | < 50 nM
C[C@H]1C[C@@]2(C[C@@H](c3cn(CC(C)(C)O)nn3)N1)OC[C@@H](O)c1cc(Cl)sc12 | > 500 nM
C[C@H]1C[C@@]2(C[C@@H](c3cccc(C(N)=O)c3)N1)OCCc1cc(Cl)sc12 (racemic) | 50 to 500 nM
Cc1nn(CCO)cc1[C@@H]1C[C@]2(C[C@H](C)N1)OCCc1cc(Cl)sc12 (racemic) | > 500 nM
CC(C)Cc1cc2c(s1)C1(C[C@@H](C)N[C@@H](C)C1)OCC2 (single isomer, unassigned) | > 500 nM
COc1cccc([C@@H]2C[C@]3(C[C@H](C)N2)OCCc2cc(Cl)sc23)c1O (racemic) | > 500 nM

---

Molecular target: APOL1 G1 (Homo sapiens, UniProt O14791, I384M/S342G)
Assay: MultiTox-Fluor Multiplex Cytotoxicity Assay, tet-inducible APOL1 G1 T-REx-HEK293 cells
Type: cell-based
Set-up: expressed in transfected cells; host or cells: T-REx HEK293, clone G1 DC3.25 (pAAVS1-Puro-APOL1 G1)
Settings: Multi-Tox Assay; APOL1 variant not given
Method: The MultiTox-Fluor Multiplex Cytotoxicity Assay is a single-reagent-addition, homogeneous, fluorescence assay that measures the number of live and dead cells simultaneously in culture wells. […] The live-cell protease activity is restricted to intact viable cells and is measured using a fluorogenic, cell-permeant peptide glycyl-phenylalanylamino fluorocoumarin (GF-AFC) substrate. […] Assay ready plates from the Global Compound Archive were ordered using template 384_APOL1Cell_DR10n2_50uM_v3. […]

molecule | Multi-Tox Assay Max Activity (%)
CC(C)C(=O)NCCn1cc([C@@H]2C[C@]3(C[C@H](C)N2)OC[C@@H](O)c2cc(Cl)sc23)nn1 | 98.0
C[C@H]1C[C@@]2(C[C@@H](c3cn(CCC(C)(C)O)nn3)N1)OC[C@@H](O)c1cc(Cl)sc12 | 100.0
COc1ccc(C(O)Cn2cc([C@@H]3C[C@]4(C[C@H](C)N3)OCC(F)(F)c3cc(Cl)sc34)nn2)cc1 (stereo partly shown) | 97.0
COc1nn(C)cc1[C@@H]1C[C@]2(C[C@H](C)N1)OCCc1cc(Cl)sc12 (racemic) | 94.0
C[C@H]1C[C@@]2(C[C@@H](c3cn(Cc4ccc(S(C)(=O)=O)cc4)nn3)N1)OC[C@@H](O)c1cc(Cl)sc12 | 100
C[C@H]1C[C@@]2(C[C@@H](c3ccn(C)n3)N1)OCCc1cc(Cl)sc12 (racemic) | 99.3
COCC(O)Cn1cc([C@@H]2C[C@]3(C[C@H](C)N2)OC[C@@H](O)c2cc(Cl)sc23)nn1 (stereo partly shown) | 100.0
